biological target: HIV-1 Env of isolate MGRM-D-001 (subtype D) (HIV-1); experiment: cell-based or functional assay
observationType: IC50 (neutralization) (µg/mL)
Reply numerically in µg/mL, unit not repeated.

PGT-128 (antibody, V domains shown) VH: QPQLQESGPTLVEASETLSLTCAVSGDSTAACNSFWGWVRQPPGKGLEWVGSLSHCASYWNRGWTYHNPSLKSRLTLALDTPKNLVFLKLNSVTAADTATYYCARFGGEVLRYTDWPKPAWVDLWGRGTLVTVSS VL: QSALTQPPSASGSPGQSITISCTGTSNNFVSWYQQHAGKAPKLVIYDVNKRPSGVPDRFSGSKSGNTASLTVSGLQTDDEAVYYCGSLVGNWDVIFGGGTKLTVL	0.138

Kindly note the recorded IC50 (neutralization) for PGT-123 (antibody, V domains shown) VH: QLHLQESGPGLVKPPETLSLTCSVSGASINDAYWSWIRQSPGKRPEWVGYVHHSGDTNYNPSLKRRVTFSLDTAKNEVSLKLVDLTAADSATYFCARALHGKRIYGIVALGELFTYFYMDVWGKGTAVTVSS VL: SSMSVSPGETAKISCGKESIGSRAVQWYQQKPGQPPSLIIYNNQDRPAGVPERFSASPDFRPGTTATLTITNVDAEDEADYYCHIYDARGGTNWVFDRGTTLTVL , which is 0.147
